Measured values drawn from paper PMC10397247 for this set.

# interaction score values compiled below
Target: T1, 4H3297-bH
T1 chain: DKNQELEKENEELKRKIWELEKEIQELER
Test: two-hybrid library CCNG1;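 further: natural log of median RNA to DNA barcode read ratio; higher means stronger binding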
reported metric: interaction score

1. DKIQELKKKNEELKRKIWELEKEIQELER [4H3041-bH] | 0.592
2. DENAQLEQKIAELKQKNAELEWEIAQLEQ [4H1393-bA] | -0.857
3. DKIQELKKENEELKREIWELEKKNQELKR [4H2760-bH] | 1.12
4. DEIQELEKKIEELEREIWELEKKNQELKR [4H264-bH] | 1.11
